Target: LAT1 (Mus musculus)
Experiment: Cis-inhibition of radiolabelled LAT1-probe substrate uptake into BV2 cells
Type: cell-based
Details: probe [3H]-L-Kynu, 5 min, mean ± SD, n = 3–4, read-out: IC50 of [3H]-L-Kynu uptake
value.kind: IC50
Note: a bare number is incomplete; add the unit.

Worked cases, IC50 given:
[[record]]
structure_notation = "COc1ccc2cc([C@H](C)C(=O)Oc3cccc(C[C@H](N)C(=O)O)c3)ccc2c1"
value_kind = "IC50"
experimental_result = "3.1 µM"

[[record]]
structure_notation = "N[C@@H](Cc1cccc(NC(=O)c2ccccc2O)c1)C(=O)O"
value_kind = "IC50"
experimental_result = "18.1 µM"


Attention now shifts to the item below.
Measured on LAT1 (Mus musculus), `COc1cc(/C=C/C(=O)Oc2cccc(C[C@H](N)C(=O)O)c2)ccc1O` has a documented IC50 of 96.8 µM

====

Target: LAT1 (Mus musculus, UniProt Q9Z127)
Sequence (Q9Z127 whole entry): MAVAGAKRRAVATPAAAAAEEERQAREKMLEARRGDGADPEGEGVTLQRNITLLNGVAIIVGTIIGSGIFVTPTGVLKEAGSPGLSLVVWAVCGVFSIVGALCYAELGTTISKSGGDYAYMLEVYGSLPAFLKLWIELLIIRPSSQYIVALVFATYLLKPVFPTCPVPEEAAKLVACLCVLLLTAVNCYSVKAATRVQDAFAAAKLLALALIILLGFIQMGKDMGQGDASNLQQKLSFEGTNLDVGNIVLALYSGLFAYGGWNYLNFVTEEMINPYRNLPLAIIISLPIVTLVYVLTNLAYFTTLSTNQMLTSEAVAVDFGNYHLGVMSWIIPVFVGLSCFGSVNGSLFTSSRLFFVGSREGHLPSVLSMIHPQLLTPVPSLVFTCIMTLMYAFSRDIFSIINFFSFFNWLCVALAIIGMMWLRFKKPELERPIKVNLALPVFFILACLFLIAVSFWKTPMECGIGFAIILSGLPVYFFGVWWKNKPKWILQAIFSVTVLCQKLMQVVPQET
Sequence (P10852 whole entry partner): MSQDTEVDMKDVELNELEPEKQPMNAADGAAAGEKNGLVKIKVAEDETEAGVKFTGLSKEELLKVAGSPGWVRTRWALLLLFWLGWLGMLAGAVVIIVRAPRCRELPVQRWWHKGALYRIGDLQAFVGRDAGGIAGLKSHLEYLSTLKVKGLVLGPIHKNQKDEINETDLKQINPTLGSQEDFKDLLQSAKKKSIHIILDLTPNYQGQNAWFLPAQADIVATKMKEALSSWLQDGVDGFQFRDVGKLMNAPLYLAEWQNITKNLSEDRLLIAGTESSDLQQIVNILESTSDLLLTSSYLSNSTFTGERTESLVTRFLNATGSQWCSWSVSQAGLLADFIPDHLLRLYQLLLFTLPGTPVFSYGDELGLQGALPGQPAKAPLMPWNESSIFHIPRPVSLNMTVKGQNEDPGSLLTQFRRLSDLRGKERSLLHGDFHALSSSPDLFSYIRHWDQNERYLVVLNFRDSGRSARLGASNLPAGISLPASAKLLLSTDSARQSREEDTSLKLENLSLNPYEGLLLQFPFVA
Experiment: Cis-inhibition of radiolabelled LAT1-probe substrate uptake into BV2 cells
Type: cell-based
Conditions: probe [3H]-L-Met, 5 min, mean ± SD, n = 3–4, read-out: IC50 of [3H]-L-Met uptake
value.kind: pIC50
The value called pIC50 is obtained by taking minus log10 of the concentration in mol/L.

[[record]]
structure_notation = "C[C@H](C(=O)Nc1cccc(C[C@H](N)C(=O)O)c1)c1ccc(-c2ccccc2)c(F)c1"
experimental_result = 5.77

[[record]]
structure_notation = "CC(C)Cc1ccc([C@H](C)C(=O)Oc2cccc(C[C@H](N)C(=O)O)c2)cc1"
experimental_result = 5.01


// below: pIC50 requested for another compound
Just so you know, measured pIC50 for `C[C@H](C(=O)Oc1cccc(C[C@H](N)C(=O)O)c1)c1ccc(-c2ccccc2)c(F)c1` came out at 5.37

====

Biological target: LAT1 (Mus musculus, UniProt Q9Z127)
Assay: Cis-inhibition of radiolabelled LAT1-probe substrate uptake into BV2 cells
Format: cell-based
Conditions: probe [3H]-L-Trp, 5 min, mean ± SD, n = 3–4, read-out: IC50 of [3H]-L-Trp uptake
value.kind: pIC50
# log scale: pIC50 equals minus log10 of the concentration in mol/L

Example entries and their recorded answers appear below.
[[record]]
molecule = "C[C@H](C(=O)Nc1cccc(C[C@H](N)C(=O)O)c1)c1cccc(C(=O)c2ccccc2)c1 [Compound 2]"
target_under_test = "LAT1 (Mus musculus, UniProt Q9Z127)"
value_kind = "pIC50"
experimental_result = 5.00

[[record]]
molecule = "NC(Cc1cccc(C(=O)Oc2ccc(-c3ccc(-c4ccc5c(c4)COC5=O)s3)cc2)c1)C(=O)O (centres unmarked) [Compound 1]"
target_under_test = "LAT1 (Mus musculus, UniProt Q9Z127)"
value_kind = "pIC50"
experimental_result = 5.17

[[record]]
molecule = "N[C@@H](Cc1cccc(NC(=O)c2ccccc2O)c1)C(=O)O [Compound 8]"
target_under_test = "LAT1 (Mus musculus, UniProt Q9Z127)"
value_kind = "pIC50"
experimental_result = 4.61


Next up:
Noted pIC50 for CC(C(=O)Nc1ccc(CC(N)C(=O)O)cc1)c1cccc(C(=O)c2ccccc2)c1 (centres unmarked) [Compound 3] , tested on LAT1 (Mus musculus, UniProt Q9Z127): 4.41

====

Target: LAT1 (Mus musculus, UniProt Q9Z127)
Assay: Concentration-dependent cellular uptake into BV2 cells, Eadie–Hofstee analysis, Transport Type 1 (LAT1)
Type: cell-based
Details: BV2 cells
value.kind: Cellular uptake

[[record]]
molecule = "COc1ccc2cc([C@H](C)C(=O)Oc3cccc(C[C@H](N)C(=O)O)c3)ccc2c1"
experimental_result = "highest cellular uptake"

[[record]]
molecule = "NC(Cc1cccc(C(=O)Oc2ccc(-c3ccc(-c4ccc5c(c4)COC5=O)s3)cc2)c1)C(=O)O (stereo not shown)"
experimental_result = "highest cellular uptake"

[[record]]
molecule = "C[C@H](C(=O)OCc1ccc(C[C@@H](N)C(=O)O)cc1)c1cccc(C(=O)c2ccccc2)c1"
experimental_result = "highest cellular uptake"


====

Biological target: LAT1 (Mus musculus, UniProt Q9Z127)
Assay: Cis-inhibition of radiolabelled LAT1-probe substrate uptake into BV2 cells
Assay type: cell-based
Details: probe [3H]-L-Kynu, 5 min, mean ± SD, n = 3–4, read-out: IC50 of [3H]-L-Kynu uptake
value.kind: IC50 (µM)
Form entry: value (µM) — number only.

[[record]]
compound = "COc1cc(C=CC(=O)NCc2cccc(CC(N)C(=O)O)c2)ccc1O (centres unmarked)"
value_kind = "IC50"
experimental_result = 43.3

[[record]]
compound = "COc1cc(/C=C/C(=O)Nc2cccc(C[C@H](N)C(=O)O)c2)ccc1O"
value_kind = "IC50"
experimental_result = 54.3


Shifting focus to the compound that follows.
// recorded IC50 for `CC(C)Cc1ccc([C@H](C)C(=O)Nc2cccc(C[C@H](N)C(=O)O)c2)cc1` : 7.7

====

Target: LAT1 (Mus musculus, UniProt Q9Z127)
Assay: Inhibition type of [14C]-L-Leu uptake (Hanes-Woolf plots) in BV2 cells
Type: cell-based
Details: of [14C]-L-Leu uptake; BV2; concluded from Km and Vmax
Procedure: After removal of the culture medium, the BV2 cells were carefully washed with pre-warmed HBSS (Hank’s balanced salt solution) containing 125.0 mM choline chloride, 4.8 mM KCl, 1.2 mM MgSO4, 1.2 mM KH2PO4, 1.3 mM CaCl2, 5.6 mM glucose, and 25.0 mM HEPES (pH 7.4 adjusted with 1 M NaOH). Pre-incubation was done with 500 μL of pre-warmed HBSS at 37 °C for 10 min before adding substrates (250 μL in HBSS) for the uptake experiments. […]
value.kind: Inhibition Type

[[record]]
compound = "COc1cc(/C=C/C(=O)Oc2cccc(C[C@H](N)C(=O)O)c2)ccc1O [Compound 7]"
value_kind = "Inhibition Type"
experimental_result = "Mixed type"

[[record]]
compound = "CC(C)Cc1ccc([C@H](C)C(=O)Oc2cccc(C[C@H](N)C(=O)O)c2)cc1 [Compound 13]"
value_kind = "Inhibition Type"
experimental_result = "Mixed type"


====

Molecular target: LAT1 (Mus musculus)
Test: Cis-inhibition of radiolabelled LAT1-probe substrate uptake into BV2 cells
Assay type: cell-based
Settings: probe [3H]-L-Trp, 5 min, mean ± SD, n = 3–4, read-out: IC50 of [3H]-L-Trp uptake
Collected IC50 values appear next to each entry.
Give the quantity in µM, number only.

These recorded examples may help you get a feel for the data.
[[record]]
structure_notation = "CC(C)Cc1ccc([C@H](C)C(=O)Oc2cccc(C[C@H](N)C(=O)O)c2)cc1"
experimental_result = 36.3

[[record]]
structure_notation = "C[C@H](C(=O)OCc1ccc(C[C@@H](N)C(=O)O)cc1)c1cccc(C(=O)c2ccccc2)c1"
experimental_result = 37.6

[[record]]
structure_notation = "COc1ccc2cc([C@H](C)C(=O)Oc3cccc(C[C@H](N)C(=O)O)c3)ccc2c1"
experimental_result = 11.1


Quick note, IC50 for `C[C@H](C(=O)Oc1cccc(C[C@H](N)C(=O)O)c1)c1ccc(-c2ccccc2)c(F)c1` landed at 6.3

Given item `CC(C)Cc1ccc([C@H](C)C(=O)Nc2cccc(C[C@H](N)C(=O)O)c2)cc1` , the value recorded as its IC50 is 43.4

====

Test: Time-dependent cellular uptake of compounds into BV2 cells (LC-MS/MS)
Assay type: cell-based, mouse
Conditions: mouse, BV2 microglia cells, 100 µM compound, 1–60 min, mean ± SD, n = 3, read-out: T½ of cellular uptake
Catalogue of half-life at 100 μM readings, one per entry.
Just the number in min, nothing appended.

half-life at 100 μM reported for this compound `COc1cc(/C=C/C(=O)Nc2cccc(C[C@H](N)C(=O)O)c2)ccc1O` : 9.38

For reference, reported half-life at 100 μM for `N[C@@H](Cc1cccc(NC(=O)c2ccccc2O)c1)C(=O)O` stands at 2.65

What the record says about `COc1cc(/C=C/C(=O)Oc2cccc(C[C@H](N)C(=O)O)c2)ccc1O` : half-life at 100 μM is 7.35

====

Biological target: LAT1 (Mus musculus)
Assay: Cis-inhibition of radiolabelled LAT1-probe substrate uptake into BV2 cells
Assay type: cell-based
Details: probe [3H]-L-Kynu, 5 min, mean ± SD, n = 3–4, read-out: IC50 of [3H]-L-Kynu uptake
value.kind: pIC50
Quick note: pIC50 means taking -log10 of the concentration in moles per liter.

Consider the worked cases shown below.
[[record]]
molecule = "C[C@H](C(=O)Oc1cccc(C[C@H](N)C(=O)O)c1)c1ccc(-c2ccccc2)c(F)c1"
target_under_test = "LAT1 (Mus musculus)"
experimental_result = 5.52

[[record]]
molecule = "C[C@H](C(=O)Nc1cccc(C[C@H](N)C(=O)O)c1)c1ccc(-c2ccccc2)c(F)c1"
target_under_test = "LAT1 (Mus musculus)"
experimental_result = 5.33

[[record]]
molecule = "C[C@H](C(=O)Nc1cccc(C[C@H](N)C(=O)O)c1)c1cccc(C(=O)c2ccccc2)c1"
target_under_test = "LAT1 (Mus musculus)"
experimental_result = 5.37


The record that follows has no pIC50 shown yet.
Field pIC50 (entry NC(Cc1cccc(C(=O)Oc2ccc(-c3ccc(-c4ccc5c(c4)COC5=O)s3)cc2)c1)C(=O)O (stereo not shown) ) reads 6.15
